Measured values drawn from the supplement of paper PMC6555819 for this set.

- Tested on: RARa:RXR (NR concentration 270 nM, RXRa partner concentration 90 nM)
- Protocol Description: PBM binding z-score (relative to random genomic background probes); higher = stronger binding; sequences stand for … in GC…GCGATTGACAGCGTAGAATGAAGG
Quick rule: PBM binding z-score of at least 0.7 means Y, below that means N.

// query Given the entry CAAACTAGGTCAAGAGGGCAAAGTCCGCTTCCCG , answer whether its PBM binding z-score meets or surpasses 0.7.
// result Y

// query Given the entry CGTCCCAGGTCAATGCTAGGTCAGTGAAAGCATT , answer whether its PBM binding z-score meets or surpasses 0.7.
// result Y

// query Given the entry ATCTCTAGGTAAAGATAGATCAGTGAATGCAAAT , answer whether its PBM binding z-score meets or surpasses 0.7.
// result N

// query Given the entry ACTATTAGTTCAGACGAGGGCAACCGATAGGTTG , answer whether its PBM binding z-score meets or surpasses 0.7.
// result Y

// query Given the entry CTCGAAAGGTCGGTTGAGGTTAGTATACGGATAA , answer whether its PBM binding z-score meets or surpasses 0.7.
// result Y

// query Given the entry CAGCCCAGGTCAGGGCCAGTATAGGAGGAACGTT , answer whether its PBM binding z-score meets or surpasses 0.7.
// result Y

// query Given the entry ATCACTAGGTAACCAAGTTCAGTGAATGCCGAAC , answer whether its PBM binding z-score meets or surpasses 0.7.
// result N

// query Given the entry TAGCCTAGGTCATGGGCCGGTATACCACGCGAAC , answer whether its PBM binding z-score meets or surpasses 0.7.
// result Y

// query Given the entry TCGTGTAGATCAAAGGTTAAGAAAGCCGAAGCCT , answer whether its PBM binding z-score meets or surpasses 0.7.
// result Y

// query Given the entry AGAATGAGGTTACCAAAGATTAGGGAAACGCTTG , answer whether its PBM binding z-score meets or surpasses 0.7.
// result Y

// query Given the entry TCGTATAGGTAAATGCTAGGTGAAAGTCCGATCT , answer whether its PBM binding z-score meets or surpasses 0.7.
// result Y

// query Given the entry TGTAGCAGGCCAGAGGGTCACTCAAGAGGTACGG , answer whether its PBM binding z-score meets or surpasses 0.7.
// result Y

// query Given the entry CCTGCTAGGTCTTGGTCAGCTAATCTACAGTATG , answer whether its PBM binding z-score meets or surpasses 0.7.
// result N

// query Given the entry ACAGACAGGTGAGTGAAGGTAACTCTGCTGGACG , answer whether its PBM binding z-score meets or surpasses 0.7.
// result N

// query Given the entry GCTTGTAGATCGAGGTTAAGAAAGACTAAGCTAA , answer whether its PBM binding z-score meets or surpasses 0.7.
// result Y

// query Given the entry TCTTGTGGATCAAGCAGGTTAAGAAAGCCTGAGT , answer whether its PBM binding z-score meets or surpasses 0.7.
// result N

// query Given the entry TCTAGTTTGTCAAAGGTCACACACTCGAAATGCG , answer whether its PBM binding z-score meets or surpasses 0.7.
// result Y

// query Given the entry TCGAGTAGGTTACCATTGGGGCATTCAGCTTTCT , answer whether its PBM binding z-score meets or surpasses 0.7.
// result N

// query Given the entry GCTTACGGGTCATAGGTTATAGCATGAATAGAAT , answer whether its PBM binding z-score meets or surpasses 0.7.
// result Y

// query Given the entry CCTAGCAGGCCAATCAGGGTCACTCAAGGCTTGA , answer whether its PBM binding z-score meets or surpasses 0.7.
// result Y

// query Given the entry CCGGCTAGGTCATGGTCAGCTAATCTACAGTATG , answer whether its PBM binding z-score meets or surpasses 0.7.
// result Y

// query Given the entry CCTACTAGGCCAAGGTCATTGATCAGTCAAAGCA , answer whether its PBM binding z-score meets or surpasses 0.7.
// result Y

// query Given the entry GCATATAGGTAATACAAGGAGAAAGTCCGATTGT , answer whether its PBM binding z-score meets or surpasses 0.7.
// result N

// query Given the entry TCGAGTAGGTTAGGGGCATTCTGAATGGCGTCGA , answer whether its PBM binding z-score meets or surpasses 0.7.
// result N

// query Given the entry TAGCCTAGGTAATTCAGGGGCCAGTATAGAAAGC , answer whether its PBM binding z-score meets or surpasses 0.7.
// result N

// query Given the entry AGAACGAGGGCGATGAGTTGATAGCACGGGTGGC , answer whether its PBM binding z-score meets or surpasses 0.7.
// result N

// query Given the entry TAGCCTAGGTCATTGGGCCAGAATAGTACGCATC , answer whether its PBM binding z-score meets or surpasses 0.7.
// result Y

// query Given the entry CGAACTAGGTCAGAACTGGACAGTGAAGGATGAT , answer whether its PBM binding z-score meets or surpasses 0.7.
// result N

// query Given the entry CTACCAAGGTGAACAATGTCGTTGATTACTATTC , answer whether its PBM binding z-score meets or surpasses 0.7.
// result Y

// query Given the entry ATCTCTAGGAAAAGATAGTTCAGTGAATGCAAAT , answer whether its PBM binding z-score meets or surpasses 0.7.
// result N

// query Given the entry ACTAGCAGGCCAAGTTTGGGCCACTCAAACAAAG , answer whether its PBM binding z-score meets or surpasses 0.7.
// result N

// query Given the entry ATCTCTAGGTAAGTCTCAGTTCAGTGAAGAACGC , answer whether its PBM binding z-score meets or surpasses 0.7.
// result Y

// query Given the entry CAAACGAGGGCATGAGTTGATAGCAAATGCCGAT , answer whether its PBM binding z-score meets or surpasses 0.7.
// result Y

// query Given the entry CCTCGGTGGACAACAGGAGGTCAGAGCTGCCAGA , answer whether its PBM binding z-score meets or surpasses 0.7.
// result Y

// query Given the entry CCGACTGGGGCAGTAAGGTTACCATACCATCCGG , answer whether its PBM binding z-score meets or surpasses 0.7.
// result Y

// query Given the entry TCTCGTTGGTCAAAGGTCACACACTCGAAATGCG , answer whether its PBM binding z-score meets or surpasses 0.7.
// result Y

// query Given the entry AATACAGGGTCGTCGTAGGCCAGAGTACGCACAG , answer whether its PBM binding z-score meets or surpasses 0.7.
// result Y

// query Given the entry TCTGCTGGGTCAGTTGGTCAGCTAACGAGCTGCC , answer whether its PBM binding z-score meets or surpasses 0.7.
// result N

// query Given the entry TCTAGTTGGTCAAAGGTCACTCACTCGAAATGCG , answer whether its PBM binding z-score meets or surpasses 0.7.
// result Y

// query Given the entry ATACGAAGGTGATCGTGAGGTCGTTGATACTAAC , answer whether its PBM binding z-score meets or surpasses 0.7.
// result Y

// query Given the entry TCTTATAGGTAAAAGGTGAAAGTCGGTGTGGTAA , answer whether its PBM binding z-score meets or surpasses 0.7.
// result Y

// query Given the entry GCTCGGAGGACAAGGCCAGAGCTTTGTCCGTAGA , answer whether its PBM binding z-score meets or surpasses 0.7.
// result N

// query Given the entry AGAATGAGGTTACGATCAGGGAAACAGAATACAT , answer whether its PBM binding z-score meets or surpasses 0.7.
// result Y

// query Given the entry TCTATTAGTTTATTAGGGCAACCGAAACAGCGGA , answer whether its PBM binding z-score meets or surpasses 0.7.
// result Y

// query Given the entry GCAGACAGGTGAAACGCAGGTAACTCATGGTGGC , answer whether its PBM binding z-score meets or surpasses 0.7.
// result Y

// query Given the entry CCTTACGGGTGACTGACAGGTTATAGCATTTGGA , answer whether its PBM binding z-score meets or surpasses 0.7.
// result Y

// query Given the entry CCGACTGGGGCCAGGTTACCATAACGCACAGCCA , answer whether its PBM binding z-score meets or surpasses 0.7.
// result N

// query Given the entry ATCTCTAGGTAACCAAGTTCAGTGAATGCCGAAC , answer whether its PBM binding z-score meets or surpasses 0.7.
// result Y

// query Given the entry CGTCCAAGGTCATAGGAGGTCGGTGAAGACAGAT , answer whether its PBM binding z-score meets or surpasses 0.7.
// result Y

----------
- Tested on: LXRb:RXRa (NR concentration 270 nM, RXRa partner concentration 90 nM)
- Protocol Description: PBM binding z-score (relative to random genomic background probes); higher = stronger binding; sequences stand for … in GC…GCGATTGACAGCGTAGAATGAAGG
Quantity Measured: PBM binding z-score
Give the value as a plain number.

// query Specify PBM binding z-score for CCAAACAGGTGAAAGGTAACTCAGTCTGGTACGC and stop.
// result 1.09

// query Specify PBM binding z-score for AGTCAAAGTTCACTAGGTAACATAAGATTCAGCT and stop.
// result 3.27

// query Specify PBM binding z-score for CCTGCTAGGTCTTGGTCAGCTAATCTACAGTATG and stop.
// result -0.509

// query Specify PBM binding z-score for CCTTACGGGTCACGAGGTTATAGGACGACGAGCG and stop.
// result 3.75

// query Specify PBM binding z-score for GTACCCAGGTGAATAGGTCGTTGATGAGTAGGCG and stop.
// result 0.285

// query Specify PBM binding z-score for AGTCAAAGTTCATCTAGGGAACGTAAGATATGCT and stop.
// result 3.68

// query Specify PBM binding z-score for ACTCGGAGAACAAAGGTCAGAGCTACGCCAGTGA and stop.
// result 3.29

// query Specify PBM binding z-score for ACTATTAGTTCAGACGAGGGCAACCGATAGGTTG and stop.
// result 0.453

// query Specify PBM binding z-score for ACAAACAGGTGATGAAGGTAACTCAGGCTATCAT and stop.
// result 0.22

// query Specify PBM binding z-score for ACTCGGAGGCCAAAGGTCAGAGCTACGCCAGTGA and stop.
// result 3.69

// query Specify PBM binding z-score for GCATATAGGTAATACTAGGTGAAAGTCCGATTGT and stop.
// result 0.49

// query Specify PBM binding z-score for GCGACTGGGGCAAAGGAGGTTACCATAAGGTTGG and stop.
// result 0.882

// query Specify PBM binding z-score for CCGTACGGGTCACTGACAGGTTATAGCATTTGGA and stop.
// result 3.7

// query Specify PBM binding z-score for GTACCTAGGTGAATAGGTCGTTGATGAGTAGGCG and stop.
// result 0.185

// query Specify PBM binding z-score for CGTCCAAGGTCAGACAGGTCAGTGAATGCCGAGT and stop.
// result 3.43

// query Specify PBM binding z-score for ACTATTAGTTGTGACGAGGGCAACCGATAGGTTG and stop.
// result -0.0591

// query Specify PBM binding z-score for ACTAGCCGGCCAAGGGTCACTCAAGATTAGTCCG and stop.
// result 2.59

// query Specify PBM binding z-score for CCTGCTAGGTCATGGTCAGCTATTCTACAGTATG and stop.
// result 1.79

// query Specify PBM binding z-score for TCTTGTAGATCAAGCAGCTTAAGAAAGCCTGAGT and stop.
// result -0.0264

// query Specify PBM binding z-score for ACTATTCGTTGAGACGAGGGCAACCGATAGGTTG and stop.
// result 0.132

// query Specify PBM binding z-score for ACTATAAGTTGAGACGAGGGCAACCGATAGGTTG and stop.
// result 0.115

// query Specify PBM binding z-score for CCGACTGGGGCAAAGGATACCATACTCAGTACGA and stop.
// result -0.347

// query Specify PBM binding z-score for TCTGCTAGGTCAGTTGGTCAGCTACCGAGCTGCC and stop.
// result -0.00907

// query Specify PBM binding z-score for GCTTGTAGATCAAGGTTAAGCAAGACTAAGCTAA and stop.
// result 0.0406

// query Specify PBM binding z-score for ATCTAAAGGTCGTGAGGTGAGTATACAGAAAGGC and stop.
// result 3.73

// query Specify PBM binding z-score for GGAACGAGGCCATTCGAGTTGATAGCATGGCGAT and stop.
// result -0.483
